B1: CPOX (parent)
chain: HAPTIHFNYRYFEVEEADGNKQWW

variants of: B1; test: protein stability index of a GFP-peptide fusion (GPS, HEK-293T) (PSI 1-6); higher = more stable; conditions: c terminus: a fixed tail appended;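 note: lentivirally expressed fusions sorted by FACS into six bins by GFP to DsRed ratio, PSI derived from sequencing read proportions per bin multiplied by bin number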
So basically: protein stability index at 2 or higher? That is Met. Lower than 2? That is Not met.

The examples below pair each entry with its known result.
mutation_annotation	label_value
W24C	Met
H6Y	Met
H6I	Met
N8V	Not met

Query string: Reported protein stability index at or above 2? `R10N`
Result string: Met

Query string: And for `H1L` ?
Result string: Not met
